Listed below: Anzahl der Magenulzera bei gleicher Dosis values for each entry.
- Test system: Magen
- procedure-summary: Ulcer test (gastric ulceration)
- Format: in vivo, Wistar-Eatten (SPF)
- reported-conditions: rat, in vivo, po

# annotated cases, reported Anzahl der Magenulzera bei gleicher Dosis shown
compound	measured-result
O=C(O)C1CCc2cc(C3CCCCC3)c(Cl)cc21 (stereo not shown)	7,8
CC(C(=O)O)c1ccc(C2CCCCC2)cc1 (stereo not shown)	7,6
O=C(O)C1CCc2cc(C3CCCCC3)ccc21 (stereo not shown)	8,3

# ---- query compound ----
Need Anzahl der Magenulzera bei gleicher Dosis of CC(C)Cc1ccc(C(C)C(=O)O)cc1 (stereo not shown) , thanks. 6,8
